- Tested on: human immunodeficiency virus (HIV)
- assay_method_text: Anti-HIV activity: protection of HIV-infected MT-4 cells from cell death, MTT method
- run_parameters: read-out: EC50 (concentration to suppress 50% of cell death due to HIV infection); HIV-infected MT-4 cells, MOI 0.001, 5 days at 37° C., MTT method; unit μM printed with the compound
readout_kind: EC50 (µM)
The answer is to be given in µM; state only the numeric part.

Input: Respond only with EC50 recorded for Cc1cn([C@H]2C[C@H](N=[N+]=[N-])[C@@H](CO)O2)c(=O)[nH]c1=O [AZT, reference compound]
Output: 0.0011

These measurements were taken from patent US6329498A.
